The measured values listed here are drawn from the supplement of paper PMC7877785.

// values below are reported self-splicing fitness (ln)
- test details: self-splicing fitness, log relative to wild type (ln ratio); higher = more splicing; Tetrahymena group I intron in knt gene, E. coli kanamycin selection, DiMSum; sequences stand for … in CUCUCU…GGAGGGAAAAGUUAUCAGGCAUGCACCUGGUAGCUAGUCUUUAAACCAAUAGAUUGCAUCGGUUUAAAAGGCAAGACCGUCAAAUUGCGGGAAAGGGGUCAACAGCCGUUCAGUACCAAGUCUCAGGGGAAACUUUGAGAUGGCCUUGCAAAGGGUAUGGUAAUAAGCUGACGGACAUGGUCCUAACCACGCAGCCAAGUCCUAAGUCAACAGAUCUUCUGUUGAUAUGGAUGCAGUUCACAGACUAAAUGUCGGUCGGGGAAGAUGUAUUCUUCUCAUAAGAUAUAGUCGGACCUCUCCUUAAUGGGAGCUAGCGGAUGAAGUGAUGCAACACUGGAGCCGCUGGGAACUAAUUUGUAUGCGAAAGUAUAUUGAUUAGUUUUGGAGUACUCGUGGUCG;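 further: selection with 25 µg/mL kanamycin versus none on LB agar overnight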
- details: 30 °C
reported property: self-splicing fitness (ln)

entry_sequence=CAGCAGCAAUAUUACGGGAG reported_property="self-splicing fitness (ln)" reported_measurement=-1.2
entry_sequence=CCGCAGCAAUAUUACGUCAC reported_property="self-splicing fitness (ln)" reported_measurement=-4.14
entry_sequence=GAACAGCAAUAUUACGUUUG reported_property="self-splicing fitness (ln)" reported_measurement=-2.2
entry_sequence=UGCUAGCAAUAUUACGCUCC reported_property="self-splicing fitness (ln)" reported_measurement=-2.06
entry_sequence=UUCUAGCAAUAUUACGGUGC reported_property="self-splicing fitness (ln)" reported_measurement=-2.46
entry_sequence=UAGAAGCAAUAUUACGACAG reported_property="self-splicing fitness (ln)" reported_measurement=-0.764
entry_sequence=AAUUAGCAAUAUUACGAAGC reported_property="self-splicing fitness (ln)" reported_measurement=-1.94
entry_sequence=AGCAAGCAAUAUUACGCGGC reported_property="self-splicing fitness (ln)" reported_measurement=-3.39
entry_sequence=UUCAAGCAAUAUUACGAGGG reported_property="self-splicing fitness (ln)" reported_measurement=-3.56
entry_sequence=GAAUAGCAAUAUUACGAUCA reported_property="self-splicing fitness (ln)" reported_measurement=-1.11
entry_sequence=GUAUAGCAAUAUUACGAAGU reported_property="self-splicing fitness (ln)" reported_measurement=-3.25
entry_sequence=AGAAAGCAAUAUUACGCUUG reported_property="self-splicing fitness (ln)" reported_measurement=-2.37
entry_sequence=GAAUAGCAAUAUUACGGCUC reported_property="self-splicing fitness (ln)" reported_measurement=0.451
entry_sequence=CGCGAGCAAUAUUACGGGGA reported_property="self-splicing fitness (ln)" reported_measurement=-1.94
entry_sequence=CGCAAGCAAUAUUACGAAAC reported_property="self-splicing fitness (ln)" reported_measurement=-3.46
entry_sequence=GGGUAGCAAUAUUACGACCU reported_property="self-splicing fitness (ln)" reported_measurement=-2.3
entry_sequence=CGUUAGCAAUAUUACGCAUU reported_property="self-splicing fitness (ln)" reported_measurement=-4.27
entry_sequence=GAGUAGCAAUAUUACGUAAG reported_property="self-splicing fitness (ln)" reported_measurement=-2.82
entry_sequence=AUAAAGCAAUAUUACGCUUC reported_property="self-splicing fitness (ln)" reported_measurement=-3.66
entry_sequence=GAAGAGCAAUAUUACGCAUU reported_property="self-splicing fitness (ln)" reported_measurement=-4.28
entry_sequence=CCCAAGCAAUAUUACGUAAA reported_property="self-splicing fitness (ln)" reported_measurement=-4.05
entry_sequence=UAUAAGCAAUAUUACGUCUG reported_property="self-splicing fitness (ln)" reported_measurement=-0.517
entry_sequence=AGUUAGCAAUAUUACGUUUG reported_property="self-splicing fitness (ln)" reported_measurement=-3.13
entry_sequence=AGGAAGCAAUAUUACGAAGG reported_property="self-splicing fitness (ln)" reported_measurement=-2.92
entry_sequence=AUUUAGCAAUAUUACGUAGG reported_property="self-splicing fitness (ln)" reported_measurement=-2.98
entry_sequence=CAACAGCAAUAUUACGCUUU reported_property="self-splicing fitness (ln)" reported_measurement=-2.5
entry_sequence=AGGUAGCAAUAUUACGUGUC reported_property="self-splicing fitness (ln)" reported_measurement=-3.31
entry_sequence=GGUCAGCAAUAUUACGAUCG reported_property="self-splicing fitness (ln)" reported_measurement=0.0558
entry_sequence=UCCGAGCAAUAUUACGAGUU reported_property="self-splicing fitness (ln)" reported_measurement=-2.64
entry_sequence=UGCAAGCAAUAUUACGUUGA reported_property="self-splicing fitness (ln)" reported_measurement=-2.47
entry_sequence=UCUUAGCAAUAUUACGCAUU reported_property="self-splicing fitness (ln)" reported_measurement=-4.23
entry_sequence=CCGUAGCAAUAUUACGUAGA reported_property="self-splicing fitness (ln)" reported_measurement=-3.28
entry_sequence=CGCUAGCAAUAUUACGCACU reported_property="self-splicing fitness (ln)" reported_measurement=-1.27
entry_sequence=GAGUAGCAAUAUUACGAGCU reported_property="self-splicing fitness (ln)" reported_measurement=-1.64
entry_sequence=GGCCAGCAAUAUUACGAGCC reported_property="self-splicing fitness (ln)" reported_measurement=-2.63
entry_sequence=GGAAAGCAAUAUUACGUCUU reported_property="self-splicing fitness (ln)" reported_measurement=-0.00168
entry_sequence=CACAAGCAAUAUUACGGAUA reported_property="self-splicing fitness (ln)" reported_measurement=-1.79
entry_sequence=CUAUAGCAAUAUUACGCGGC reported_property="self-splicing fitness (ln)" reported_measurement=-1.25
entry_sequence=UAUCAGCAAUAUUACGAGCC reported_property="self-splicing fitness (ln)" reported_measurement=-3.24
entry_sequence=GAAGAGCAAUAUUACGUUAA reported_property="self-splicing fitness (ln)" reported_measurement=-2.65
entry_sequence=GCCUAGCAAUAUUACGUAUG reported_property="self-splicing fitness (ln)" reported_measurement=-3.92
entry_sequence=GACUAGCAAUAUUACGAAUC reported_property="self-splicing fitness (ln)" reported_measurement=-2.28
entry_sequence=CUAGAGCAAUAUUACGCCAU reported_property="self-splicing fitness (ln)" reported_measurement=-3.39
entry_sequence=CUGGAGCAAUAUUACGUGUU reported_property="self-splicing fitness (ln)" reported_measurement=-3.3
entry_sequence=CAUGAGCAAUAUUACGUAGU reported_property="self-splicing fitness (ln)" reported_measurement=-5.58
entry_sequence=AGCGAGCAAUAUUACGGCGU reported_property="self-splicing fitness (ln)" reported_measurement=-0.762
entry_sequence=CAUCAGCAAUAUUACGUACG reported_property="self-splicing fitness (ln)" reported_measurement=0.0534
entry_sequence=CGAGAGCAAUAUUACGGGAA reported_property="self-splicing fitness (ln)" reported_measurement=-1.44
entry_sequence=GAGCAGCAAUAUUACGGAGA reported_property="self-splicing fitness (ln)" reported_measurement=-4.02
entry_sequence=UGCAAGCAAUAUUACGACAC reported_property="self-splicing fitness (ln)" reported_measurement=-2.23
entry_sequence=AUACAGCAAUAUUACGCGUC reported_property="self-splicing fitness (ln)" reported_measurement=-3.72
entry_sequence=ACGAAGCAAUAUUACGAACC reported_property="self-splicing fitness (ln)" reported_measurement=-1.75
entry_sequence=GAUUAGCAAUAUUACGCGGG reported_property="self-splicing fitness (ln)" reported_measurement=-2.31
entry_sequence=UCCAAGCAAUAUUACGUAAC reported_property="self-splicing fitness (ln)" reported_measurement=-3.57
entry_sequence=UAUUAGCAAUAUUACGCCCG reported_property="self-splicing fitness (ln)" reported_measurement=0.243
entry_sequence=CAAGAGCAAUAUUACGGGUU reported_property="self-splicing fitness (ln)" reported_measurement=-3.54
entry_sequence=UCAUAGCAAUAUUACGCGAU reported_property="self-splicing fitness (ln)" reported_measurement=-1.9
entry_sequence=GGAUAGCAAUAUUACGAUUU reported_property="self-splicing fitness (ln)" reported_measurement=0.317
entry_sequence=ACAUAGCAAUAUUACGUCUA reported_property="self-splicing fitness (ln)" reported_measurement=-2.05
entry_sequence=GCUCAGCAAUAUUACGAAGC reported_property="self-splicing fitness (ln)" reported_measurement=-2.75
entry_sequence=AAUUAGCAAUAUUACGCUUU reported_property="self-splicing fitness (ln)" reported_measurement=-3.27
entry_sequence=AACAAGCAAUAUUACGCCCU reported_property="self-splicing fitness (ln)" reported_measurement=0.18
entry_sequence=ACAUAGCAAUAUUACGUAAU reported_property="self-splicing fitness (ln)" reported_measurement=-2.87
entry_sequence=AAGAAGCAAUAUUACGCGGC reported_property="self-splicing fitness (ln)" reported_measurement=-3.5
entry_sequence=CGAAAGCAAUAUUACGAGAU reported_property="self-splicing fitness (ln)" reported_measurement=-3.54
entry_sequence=UCGAAGCAAUAUUACGAUUC reported_property="self-splicing fitness (ln)" reported_measurement=-4.04
entry_sequence=CAUGAGCAAUAUUACGCUCA reported_property="self-splicing fitness (ln)" reported_measurement=-3.35
